Sourced from the supplement of paper PMC9334596

Field: PER2::LUC luminescence. Provide a value for each of the compounds that follow.
Test system: mPer2Luc MEF
Test: PER2::LUC luminescence relative to vehicle control (fold of vehicle); higher = higher PER2::LUC reporter signal
Details: time after treatment 30 h; 10 µM
The full ranking holds about 5,300 compounds; the median of “PER2::LUC luminescence relative to vehicle control” is about 0.96, and the highest 2% start at about 1.3. The entries come from a sample that favours the highest values as a whole.
// no unit string in output, number only

What does the data say about its PER2::LUC luminescence? Entry: O=C1C[C@@H](c2ccc(O)cc2)Oc2cc(O)cc(O)c21
1.25

Cool, now COc1c2c(cc3occ(-c4ccc5c(c4)OCO5)c(=O)c13)OC(C)(C)C=C2
0.876

// repeat for C=CCO/N=C1\c2ccccc2-c2nc(C#N)c(C#N)nc21 and report
0.699

And for O=C(Nc1nc2ccccc2n1CCN1CCOCC1)c1cccc([N+](=O)[O-])c1 ?
1.18

What do we get for OC[C@H]1O[C@@H](O[C@@H]2[C@@H](CO)OC(O)(CO)[C@H]2O)[C@H](O)[C@@H](O)[C@H]1O (mixture of isomers) ?
1.37

And the next one, CC(Cc1ccccc1)(NC(=O)CN)c1ccccc1 (racemic) ?
1.04

Would you mind doing O=Nc1c(-c2c(O)[nH]c3cc(Br)ccc23)[nH]c2ccccc12 as well?
0.788

Another compound: CCC[C@@H]1C[C@@H](C(=O)N[C@@H]([C@H]2O[C@H](SC)[C@H](OP(=O)(O)O)[C@@H](O)[C@H]2O)[C@H](C)Cl)N(C)C1
1.01

Entry to check: COc1ccc(-c2c(O)c3c(OC)c4c(cc3oc2=O)OC(C)(C)C=C4)cc1
1.46

Okay, and OC[C@H]1O[C@@H](O[C@H]2[C@H](O)[C@@H](O)[C@@H](O)O[C@@H]2CO)[C@H](O)[C@@H](O)[C@@H]1O ?
0.927

Now this one: N[C@H](CC(=O)O)C(=O)O
1.08

Entry to check: C[n+]1ccc(C=Cc2ccc3ccccc3c2)cc1
1.07

Field entry: COC(=O)c1ccc2c(c1)nc(NC(=O)c1ccccc1)n2CCCc1ccccc1
0.933

Entry to check: O=C(Nc1ccc(Cl)cc1)c1cc(Br)ccc1O
0.728

Field entry: O=Nc1c(-c2c(O)[nH]c3ccccc23)[nH]c2ccccc12
2.02

Query CCCCC[C@H](O)/C=C/[C@@H]1[C@@H](C/C=C\CCCC(=O)O)[C@H](O)C[C@H]1O next
1.1

Similarly, C[C@@H]1CCNC(=O)c2cc3ccc(C(=O)Nc4nc5ccccc5n4CCCN(C)C)cc3n21 ?
0.586

Likewise for CC1(C)C=Cc2cc3ccc(=O)oc3cc2O1 ?
1.48

Same question, CC(=O)CCCCn1cnc2c1c(=O)n(C)c(=O)n2C this time
0.944

Now try COC(=O)[C@@H]1OC(=O)C2OC23[C@@]1(C)CCC1[C@@]2(C)CCC(=O)C(C)(C)C2C[C@@H](OC(C)=O)[C@]13C (some centres not stated) .
0.921

Similarly, O=C1Nc2cc(Br)ccc2/C1=C1/Nc2ccccc2/C1=N\O ?
1.09

Now this one: COc1cc2ccc(=O)oc2cc1O
1.04

# repeat for Ic1cccc(/C=N/Nc2nc(N3CCOCC3)nc(N(c3ccccc3)c3ccccc3)n2)c1
1.15

Entry to check: CCOC(=O)c1sc(NC(=O)[C@H](C(C)C)n2c(=O)[nH]c3ccccc3c2=O)nc1C
0.987

One more compound: NCCCCCCCCCCNCCCN
0.892

Here is the next compound: CN(CCCNC(=O)c1ccc2nc3c(c(Cl)c2c1)CCCC3)Cc1ccccc1
0.958

Try CC(C)NC[C@@H](O)COc1ccc(CC(N)=O)cc1 next.
0.958

====

System: mPer2Luc MEF
Test: PER2::LUC luminescence relative to vehicle control (fold of vehicle); higher = higher PER2::LUC reporter signal
Conditions: time after treatment 30 h; 10 µM
Whole data set: some 5,300 compounds, median “PER2::LUC luminescence relative to vehicle control” near 0.96, cut for the highest 2% near 1.3. This is one part of a sample in which the highest values are shown more often than they occur.
Given measured PER2::LUC luminescence, output Met if it is greater than or equal to 1 and Not met if not.

Textbook exercise: given the entry O=C(O)c1cc(-c2ccccc2)nc2ccccc12 , state whether its PER2::LUC luminescence is greater than or equal to 1.
Met

Item: Cc1cc(NC(=O)Nc2ccc3c(ccn3C)c2)sn1
Met

Again, but for O=C[C@H](O)[C@H]1OC(=O)[C@@H](O)[C@H]1O
Not met

Please answer likewise for CC1=C(/C=C/C(C)=C/C=C/C(C)=C/C=C/C=C(C)/C=C/C=C(C)/C=C/C2=C(C)CCCC2(C)C)C(C)(C)CCC1
Not met

Try the molecule CC1=C(/C=C/C(C)=C/C=C/C(C)=C/C=C/C=C(C)/C=C/C=C(C)/C=C/C2=C(C)C(=O)CCC2(C)C)C(C)(C)CCC1=O
Not met

Further, for CC(=O)CC(=O)Nc1ccc(Cl)c(C(F)(F)F)c1 ?
Met

Try the molecule Cc1ccc2c(Nc3ccc(Cl)cc3)nccc2c1Nc1ncccc1-c1ncnc2nc[nH]c12
Not met

Thanks! And O=C1/C(=C/c2cccs2)CCC/C1=C\c1cccs1 ?
Met

Param item: COc1cc([C@@H]2CC(=O)c3c(O)cc(O)cc3O2)ccc1O
Not met

Now give it for CCCC(=O)OCc1ccc(OC(=O)/C=C(C)/C=C/C=C(C)/C=C/C2=C(C)CCCC2(C)C)cc1 too.
Met

How about O=C(Nc1cccc(NC(=O)c2cccc(O)c2O)c1)c1cccc(O)c1O ?
Met

Thanks! And CC[C@H](C)[C@H]1O[C@]2(C=C[C@@H]1C)C[C@@H]1C[C@@H](C/C=C(\C)[C@@H](O[C@H]3C[C@H](OC)[C@@H](O[C@H]4C[C@H](OC)[C@@H](O)[C@H](C)O4)[C@H](C)O3)[C@@H](C)/C=C/C=C3\CO[C@@H]4[C@H](OC)C(C)=C[C@@H](C(=O)O1)[C@]34O)O2 ?
Not met

Request: CC(C)(C)c1nc2c3cc[nH]c(=O)c3c3cc(F)ccc3c2[nH]1
Not met

====

System: mPer2Luc MEF
Assay: PER2::LUC luminescence relative to vehicle control (fold of vehicle); higher = higher PER2::LUC reporter signal
Settings: time after treatment 24 h; 10 µM
Over roughly 5,300 compounds, “PER2::LUC luminescence relative to vehicle control” has its median near 0.96; the highest 2% begin near 1.3. Only a selection was taken, and the highest values are over-represented in it overall.
ENDPOINT NAME: PER2::LUC luminescence
Response field accepts a number only; no unit should be typed.

Quick one: PER2::LUC luminescence of OCC12COC(c3ccc(F)cc3)N1C(c1ccc(F)cc1)OC2 (stereo not drawn) ?
1.07

Cool, now CCOc1ccc(C(=O)c2ccc(OC)c(O)c2O)cc1
0.983

Also CC12CCC3c4ccc(O)cc4CCC3C1CCC2O (stereo not drawn) , if possible.
0.721

====

Tested on: mPer2Luc MEF
Assay: PER2::LUC luminescence relative to vehicle control (fold of vehicle); higher = higher PER2::LUC reporter signal
Settings: time after treatment 24 h; 10 µM
The full ranking holds about 5,300 compounds; the median of “PER2::LUC luminescence relative to vehicle control” is about 0.96, and the highest 2% start at about 1.3. Shown is part of a subset that was picked to be rich in the highest values.
Classify as follows. Reported PER2::LUC luminescence greater than or equal to 1: yes. Reported PER2::LUC luminescence below: no.

Check the entry O=S(=O)(O)c1cc(N=C=S)ccc1/C=C/c1ccc(N=C=S)cc1S(=O)(=O)O : does PER2::LUC luminescence equal or exceed 1?
no

Now give it for CC(C)C[C@H](NC(=O)[C@H](CCC(N)=O)NC(=O)[C@H](CCCCN)NC(=O)[C@H](CCC(N)=O)NC(=O)[C@@H](N)CCC(=O)O)C(=O)N[C@@H](CCC(N)=O)C(=O)O too.
yes

And O=C(Nc1ccccc1)Nc1ccccc1 ?
yes

Request: C=CCCCCCCCCCCCC(O)CC(O)CO (configuration not stated)
no

====

Test system: mPer2Luc MEF
Assay: PER2::LUC luminescence relative to vehicle control (fold of vehicle); higher = higher PER2::LUC reporter signal
Details: time after treatment 24 h; 10 µM
Over roughly 5,300 compounds, “PER2::LUC luminescence relative to vehicle control” has its median near 0.96; the highest 2% begin near 1.3. Shown is part of a subset that was picked to be rich in the highest values.
So I've got a bunch of molecules here, and I need their PER2::LUC luminescence values.
Hey, just send me the number, nothing else.

GET /values?readout=PER2::LUC luminescence&item= CC(Cc1ccccc1)(NC(=O)CN)c1ccccc1 (racemic)
0.964

Now the molecule NC(=O)c1cccc(N)c1
1.1

Also check O=C(/C=C/c1ccccc1)c1ccc(O[C@@H]2O[C@H](CO)[C@@H](O)[C@H](O)[C@H]2O)cc1O
1.21

Also, CC(C)c1c2cc(-c3ccnc(NC4CCC(NC5CCOCC5)CC4)n3)ccc2nn1C (centres undefined) please.
0.008
